Below is a list of entries, each paired with its recorded IC50 value.
Molecular target: Recombinant human prolyl oligopeptidase (Homo sapiens, UniProt P48147)
Sequence (P48147 1-710): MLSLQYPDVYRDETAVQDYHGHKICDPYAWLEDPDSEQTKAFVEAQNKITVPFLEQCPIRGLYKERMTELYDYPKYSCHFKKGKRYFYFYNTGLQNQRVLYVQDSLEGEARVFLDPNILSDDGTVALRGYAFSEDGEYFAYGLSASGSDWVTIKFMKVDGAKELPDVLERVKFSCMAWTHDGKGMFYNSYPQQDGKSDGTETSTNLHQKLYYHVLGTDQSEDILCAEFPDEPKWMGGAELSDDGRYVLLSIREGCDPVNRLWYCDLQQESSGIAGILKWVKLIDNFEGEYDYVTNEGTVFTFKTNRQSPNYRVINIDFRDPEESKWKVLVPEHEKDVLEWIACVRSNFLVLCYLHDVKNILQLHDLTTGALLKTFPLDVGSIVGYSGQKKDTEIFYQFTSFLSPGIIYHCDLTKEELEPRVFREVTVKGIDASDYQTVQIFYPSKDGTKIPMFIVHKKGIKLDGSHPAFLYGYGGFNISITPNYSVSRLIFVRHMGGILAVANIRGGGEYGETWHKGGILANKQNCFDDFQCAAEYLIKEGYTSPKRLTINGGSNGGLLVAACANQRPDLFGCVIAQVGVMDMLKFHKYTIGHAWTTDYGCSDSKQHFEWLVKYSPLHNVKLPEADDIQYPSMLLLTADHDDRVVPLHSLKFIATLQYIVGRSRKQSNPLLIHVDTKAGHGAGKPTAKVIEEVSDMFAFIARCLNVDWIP
Experiment: Determination of IC50- and Ki-values of PEP-inhibitors, chromogenic substrate Cbz-Gly-L-Pro-pNA
Settings: substrate 0.15 mM Cbz-Gly-L-Pro-pNA, HEPES buffer pH 7.6, 30° C.
Property Label: IC50 (nM)

> print(dat)
                                   compound  property.label  observed.value
1  O=C(O)C[C@H](NC(=O)OCc1ccccc1)C(=O)N1CCC[C@H]1C(=O)c1nc2ccccc2s1 [Example 6, 2-[Cbz-L-Asp-L-Pro]Benzothiazole]            IC50              17
2  O=C(N[C@@H](Cc1ccccc1)C(=O)N1CCC[C@H]1C(=O)c1ccc[nH]1)OCc1ccccc1            IC50            7600
3  C[C@@H](NC(=O)OCc1ccccc1)C(=O)N1CCC[C@H]1C(=O)c1nc2ccccc2s1 [Example 2, 2-[Cbz-L-Ala-L-Pro]Benzothiazole]            IC50            0.12
4  N=C(N)NCCC[C@H](NC(=O)OCc1ccccc1)C(=O)N1CCC[C@H]1C(=O)c1nc2ccccc2s1 [Example 5, 2-[Cbz-L-Arg-L-Pro]Benzothiazole]            IC50             5.4
5  CC(C)(C)OC(=O)N[C@@H](Cc1ccccc1)C(=O)N1CCC[C@H]1C(=O)c1nc2ccccc2s1 [Example 9, 2-[Boc-L-Phe-L-Pro]Benzothiazole]            IC50              29
6  C[C@H](NC(=O)OCc1ccccc1)C(=O)N1CCC[C@H]1C(=O)c1nccs1 [Example 10, 2-[Cbz-L-Ala-L-Pro]Thiazole]            IC50             4.3
7  C[C@H](NC(=O)[C@@H](Cc1ccccc1)NC(=O)OCc1ccccc1)C(=O)c1nc2ccccc2s1 [Example 3, 2-[Cbz-L-Phe-L-Ala]Benzothiazole]            IC50            1400
8  NCCCC[C@H](NC(=O)OCc1ccccc1)C(=O)N1CCC[C@H]1C(=O)c1nc2ccccc2s1 [Example 8, 2-[Cbz-L-Lys-L-Pro]Benzothiazole]            IC50               2

###

target: Recombinant human prolyl oligopeptidase (Homo sapiens, UniProt P48147); assay: Determination of IC50- and Ki-values of PEP-inhibitors, chromogenic substrate Cbz-Gly-L-Pro-pNA; details: substrate 0.15 mM Cbz-Gly-L-Pro-pNA, HEPES buffer pH 7.6, 30° C.
IC50: recorded values

Compound	U	IC50
O=C(N[C@H](Cc1ccccc1)C(=O)N1CCCC1C(=O)c1nc2ccccc2s1)OCc1ccccc1 (stereo partly drawn) [Example 1, 2-[Cbz-L-Phe-L-Pro]Benzothiazole]	nM	6
O=C(N[C@@H](Cc1ccccc1)C(=O)N1CCC[C@H]1C(=O)c1nccs1)OCc1ccccc1 [Example 4, 2-[Cbz-L-Phe-L-Pro]Thiazole]	nM	15
C=CCOC(=O)N[C@@H](Cc1ccccc1)C(=O)N1CCC[C@H]1C(=O)c1nc2ccccc2s1 [Example 7, 2-[Aloc-L-Phe-L-Pro]Benzothiazole]	nM	9.7

###

Reported log10 Ki values follow for various compounds
molecular target: Recombinant human prolyl oligopeptidase (Homo sapiens); assay: Determination of IC50- and Ki-values of PEP-inhibitors, chromogenic substrate Cbz-Gly-L-Pro-pNA; settings: 4 substrate and 7 inhibitor concentrations, competitive inhibition fit, pH 7.6, 30° C.
Property Label: log10 Ki (log10 of the value in nM)

Compound	Property Label	Observed Value
C[C@@H](NC(=O)OCc1ccccc1)C(=O)N1CCC[C@H]1C(=O)c1nc2ccccc2s1 [Example 2, 2-[Cbz-L-Ala-L-Pro]Benzothiazole]	log10 Ki	-1.48
CC(C)(C)OC(=O)N[C@@H](Cc1ccccc1)C(=O)N1CCC[C@H]1C(=O)c1nc2ccccc2s1 [Example 9, 2-[Boc-L-Phe-L-Pro]Benzothiazole]	log10 Ki	0.78
O=C(O)C[C@H](NC(=O)OCc1ccccc1)C(=O)N1CCC[C@H]1C(=O)c1nc2ccccc2s1 [Example 6, 2-[Cbz-L-Asp-L-Pro]Benzothiazole]	log10 Ki	1.08
O=C(N[C@@H](Cc1ccccc1)C(=O)N1CCC[C@H]1C(=O)c1ccc[nH]1)OCc1ccccc1	log10 Ki	0.46
N=C(N)NCCC[C@H](NC(=O)OCc1ccccc1)C(=O)N1CCC[C@H]1C(=O)c1nc2ccccc2s1 [Example 5, 2-[Cbz-L-Arg-L-Pro]Benzothiazole]	log10 Ki	0.51
C[C@H](NC(=O)OCc1ccccc1)C(=O)N1CCC[C@H]1C(=O)c1nccs1 [Example 10, 2-[Cbz-L-Ala-L-Pro]Thiazole]	log10 Ki	0.41
C=CCOC(=O)N[C@@H](Cc1ccccc1)C(=O)N1CCC[C@H]1C(=O)c1nc2ccccc2s1 [Example 7, 2-[Aloc-L-Phe-L-Pro]Benzothiazole]	log10 Ki	0.91
NCCCC[C@H](NC(=O)OCc1ccccc1)C(=O)N1CCC[C@H]1C(=O)c1nc2ccccc2s1 [Example 8, 2-[Cbz-L-Lys-L-Pro]Benzothiazole]	log10 Ki	-1.42
O=C(N[C@@H](Cc1ccccc1)C(=O)N1CCC[C@H]1C(=O)c1nccs1)OCc1ccccc1 [Example 4, 2-[Cbz-L-Phe-L-Pro]Thiazole]	log10 Ki	0.83
O=C(N[C@H](Cc1ccccc1)C(=O)N1CCCC1C(=O)c1nc2ccccc2s1)OCc1ccccc1 (stereo partly drawn) [Example 1, 2-[Cbz-L-Phe-L-Pro]Benzothiazole]	log10 Ki	-1.24
